test: cAMP Responsive Elements (CRE) small molecule agonists, cell-based qHTS assay: qHTS cell viability counter screen (AID 2060914); settings: CRE-bla HEK293T viability, CellTiter-Glo luminescence, 5 h; series mostly up to 92.4 µM;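 further: viability read after 3 h of compound exposure; nearly all actives have a fitted effect of over 50% in size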
Records with an inconclusive call do not appear. Activity calls are given as the source filed them. The call rests on the fitted dose curve; in most records, active means well fitted cell-killing curve with a large enough effect in the repeat runs; inconclusive means weak or mixed curves, or effect the other way; inactive means flat fitted curve, though single readings scatter.
metric name: outcome

CC1CCCCC1NC(=O)Nc1ccccc1 (centres undefined): inactive
Cc1nnc2n1-c1sc(CCc3ccc(CC(C)C)cc3)cc1C(c1ccccc1Cl)=NC2C (centres undefined): inactive
ClCCCCl: inactive
CCCCCCCCCl: inactive
C=CCC1([C@H](C)CCC)C(=O)NC(=O)NC1=O: inactive
ClC1=C(Cl)[C@]2(Cl)[C@@H]3[C@@H](Cl)[C@@H](Cl)C[C@@H]3[C@@]1(Cl)C2(Cl)Cl: inactive
CC(C)(OO)c1ccccc1: inactive
c1nc[nH]n1: inactive

For the 2 compounds below, give their outcome values.
1. N#Cc1ccncc1
2. CCCCOC(=O)CCC(=O)OCCCC

Result string:
inactive
inactive

For the 3 compounds below, give their outcome values.
1. CCc1cccc(C)c1N(C(=O)CCl)[C@@H](C)COC
2. Cc1cc(C)nc(Nc2ccccc2)n1
3. COC(=O)C1(O)c2ccccc2-c2ccccc21

Result string:
1: inactive; 2: inactive; 3: inactive

For the 4 compounds below, give their outcome values.
1. c1ccc(C2CC2)c(OCC2=NCCN2)c1
2. CCCN(CCC)C(=O)Cc1c(-c2ccc(Cl)cc2)nc2ccc(Cl)cn12
3. O=C(O)C(Cl)(Cl)Cl
4. CS/C(C)=N/OC(=O)N(C)SN(C)C(=O)O/N=C(\C)SC

Result string:
inactive
inactive
inactive
inactive

For the 2 compounds below, give their outcome values.
1. CCN1CCCC1CNC(=O)C(O)(c1ccccc1)c1ccccc1 (centres undefined)
2. Cc1ccc(N)cc1

Result string:
inactive
inactive

For the 2 compounds below, give their outcome values.
1. COc1ccc2c(c1OC)C(=O)O[C@@H]2[C@H]1c2cc3c(cc2CCN1C)OCO3
2. OCCCl

Result string:
inactive
inactive

For the 3 compounds below, give their outcome values.
1. O=C1C(Cl)=C(Cl)C(=O)C(Cl)=C1Cl
2. CCOP(=S)(OCC)SCSP(=S)(OCC)OCC
3. CCCSC(=O)Cl

Result string:
1. inactive
2. inactive
3. inactive

For the 2 compounds below, give their outcome values.
1. COc1cccc2c1cc([N+](=O)[O-])c1c(C(=O)O)cc3c(c12)OCO3
2. CC(CCc1ccccc1)NC(C)C(O)c1ccc(O)cc1 (centres undefined)

Result string:
inactive
inactive

For the 2 compounds below, give their outcome values.
1. NNC(N)=O
2. Clc1nc(Cl)nc(Cl)n1

Result string:
["inactive", "inactive"]

Query string: Entry NC(=O)CS(=O)C(c1ccccc1)c1ccccc1 (centres undefined) : reported outcome = ?
Result string: inactive
